IC50: recorded values
test system: Wnt-inducible genes (TCF/LEF luciferase reporter in DLD-1 TOPFlash cells); conditions: read-out: Wnt-inducible gene expression inhibition IC50, 24 hours, Mean ± SEM
Reply with just the number (in nM).

# MOLECULE, IC50 [nM]
data = [
    ("CC(c1ncccn1)N1CCN(c2nc3c(c(=O)[nH]2)CCCN3C)CC1 (single isomer, unassigned; isomer 2) [Example 9]", 28.2),
]

Now turn to the next molecule.
## Task Given CCC(c1ncccn1)N1CCN(c2nc3c(c(=O)[nH]2)CCCN3C)CC1 (single isomer, unassigned; isomer 2) [Example 12] , state its recorded IC50.
## Result 19.5
